Data credit: patent US20230012273A1

- Measured on: T1, cynoSIRPα (NP_001271679), Extracellular Domain + His-Tag (cynomolgus monkey)
- T1 construct: also called CySIRPα NP_001271679; not shown: His-Tag
- T1 chain: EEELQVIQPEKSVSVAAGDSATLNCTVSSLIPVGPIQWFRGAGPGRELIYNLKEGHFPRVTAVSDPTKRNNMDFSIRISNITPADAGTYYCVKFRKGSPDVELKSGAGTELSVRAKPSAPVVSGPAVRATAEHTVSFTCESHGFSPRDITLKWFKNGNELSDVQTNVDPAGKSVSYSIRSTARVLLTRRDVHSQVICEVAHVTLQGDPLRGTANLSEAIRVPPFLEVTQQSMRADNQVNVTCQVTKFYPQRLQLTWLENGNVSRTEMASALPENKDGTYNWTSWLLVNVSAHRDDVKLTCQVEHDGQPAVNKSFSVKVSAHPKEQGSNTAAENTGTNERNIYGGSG
- Protocol summary: SPR, antibody captured on Protein A/G, ECD-His analyte, 1:1 fit
- Procedure: The binding kinetics of anti-SIRPα antibodies to various SIRPα analytes are determined by surface plasmon resonance (SPR) using a Biacore 8K+(Cytiva). 1×HBS-EP+(Cytiva) is used as running buffer and for all the dilutions unless stated otherwise. […]
Measurement name: pKd
On this scale, pKd is minus log10 of a concentration expressed in M (mol/L).

Antibody E16 (antibody, human IgG1, kappa, L234A L235A, V domains shown) VH: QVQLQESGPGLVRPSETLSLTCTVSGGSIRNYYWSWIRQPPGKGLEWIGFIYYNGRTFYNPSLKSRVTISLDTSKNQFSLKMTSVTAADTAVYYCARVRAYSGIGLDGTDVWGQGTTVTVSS VL: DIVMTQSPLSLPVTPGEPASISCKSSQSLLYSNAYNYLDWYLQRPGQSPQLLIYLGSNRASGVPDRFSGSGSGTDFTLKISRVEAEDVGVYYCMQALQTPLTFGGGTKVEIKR :: 7.30
Antibody E9 (antibody, human IgG1, kappa, L234A L235A, V domains shown) VH: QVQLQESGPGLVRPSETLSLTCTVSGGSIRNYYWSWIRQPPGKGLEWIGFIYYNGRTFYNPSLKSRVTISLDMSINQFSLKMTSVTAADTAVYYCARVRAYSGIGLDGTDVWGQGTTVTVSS VL: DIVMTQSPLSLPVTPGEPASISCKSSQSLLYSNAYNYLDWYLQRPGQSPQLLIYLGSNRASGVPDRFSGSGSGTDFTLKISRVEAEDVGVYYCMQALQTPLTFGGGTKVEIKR :: 7.36

Can you look up the measured pKd of Antibody E11 (antibody, human IgG1, kappa, L234A L235A, V domains shown) VH: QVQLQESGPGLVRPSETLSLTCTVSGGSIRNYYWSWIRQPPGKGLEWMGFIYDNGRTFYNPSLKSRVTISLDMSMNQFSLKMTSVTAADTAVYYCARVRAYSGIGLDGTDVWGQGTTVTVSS VL: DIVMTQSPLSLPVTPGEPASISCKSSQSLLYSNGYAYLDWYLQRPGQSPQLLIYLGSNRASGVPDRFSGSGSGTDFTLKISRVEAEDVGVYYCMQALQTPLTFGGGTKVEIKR for me?
7.69

Would you kindly repeat that for Antibody E20 (antibody, human IgG1, kappa, L234A L235A, V domains shown) VH: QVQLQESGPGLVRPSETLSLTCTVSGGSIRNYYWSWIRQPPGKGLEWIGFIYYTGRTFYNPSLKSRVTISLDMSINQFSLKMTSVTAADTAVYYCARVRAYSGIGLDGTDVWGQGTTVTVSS VL: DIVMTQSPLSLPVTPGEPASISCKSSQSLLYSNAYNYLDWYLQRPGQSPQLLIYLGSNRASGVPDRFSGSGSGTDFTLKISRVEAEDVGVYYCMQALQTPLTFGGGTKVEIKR ?
6.95

Next binder up: Antibody E18 (antibody, human IgG1, kappa, L234A L235A, V domains shown) VH: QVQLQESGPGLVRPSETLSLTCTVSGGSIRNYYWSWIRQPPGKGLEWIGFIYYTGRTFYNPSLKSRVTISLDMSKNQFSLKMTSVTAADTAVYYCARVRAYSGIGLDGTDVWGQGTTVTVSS VL: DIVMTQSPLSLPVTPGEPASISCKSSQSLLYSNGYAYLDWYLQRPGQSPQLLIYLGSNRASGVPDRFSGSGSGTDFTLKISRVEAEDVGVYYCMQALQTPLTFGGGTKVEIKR
7.28
